Tested on: HSkMC (human skeletal muscle cells)
protocol.summary: cytotoxicity call (relative viability < 0.9)
test.context: 10 µM
The campaign covered roughly 39,000 compounds. About 1,500 (3.8%) were called active. Many of the other results were omitted from the sample, so actives are more common in it than they were.
Possible outcomes: YES (active), NO (inactive)

> print(dat)
                                    molecule  answer.label
 1  C[C@H](CO)N1C[C@H](C)[C@@H](CN(C)C(=O)Nc2ccc(-c3ccccc3)cc2)OCc2ccccc2-c2ccccc2C1=O            NO
 2  C[C@@H]1CCCCO[C@@H](CN(C)S(C)(=O)=O)[C@H](C)CN([C@@H](C)CO)C(=O)c2cc(NC(=O)CCCN(C)C)ccc2O1            NO
 3  COc1ccc(NC(=O)N(C)C[C@@H]2Oc3ccc(NC(=O)CCCCCC(=O)Nc4ccccc4N)cc3CC(=O)N([C@H](C)CO)C[C@H]2C)cc1            NO
 4  Cc1noc(C)c1NC(=O)Nc1ccc2c(c1)C(=O)N([C@H](C)CO)C[C@H](C)[C@H](CN(C)C(=O)Cc1ccccc1)OCCCC[C@@H](C)O2            NO
 5  O=C(N/N=C/[C@H](O)[C@@H](O)[C@H](O)[C@H](O)CO[C@H]1O[C@H](CO)[C@H](O)[C@H](O)[C@H]1O)c1ccccn1            NO
 6                     CS(=O)(=O)[C@H]1CCNC1            NO
 7  COc1ccc(NC(=O)Nc2ccc3c(c2)C(=O)N([C@H](C)CO)C[C@@H](C)[C@@H](CN(C)Cc2ccc(Cl)c(Cl)c2)OCCCC[C@H](C)O3)cc1            NO
 8  C=C(CO)C(=O)O[C@@H]1[C@H]2C(=C)C(=O)O[C@@H]2[C@H]2O[C@]2(C)CC/C=C(/C(=O)OC)[C@H]1OC(C)=O           YES
 9  Cc1noc(C)c1NC(=O)Nc1ccc2c(c1)C(=O)N([C@H](C)CO)C[C@H](C)[C@H](CN(C)Cc1ccc(C(F)(F)F)cc1)OCCCC[C@H](C)O2            NO
10  Cc1c(-c2c(-c3ccc(F)o3)sc3ncnc(O[C@H](Cc4ccccc4OCc4ccnn4CC(F)(F)F)C(=O)O)c23)ccc(OCCN2CCN(C)CC2)c1Cl           YES
11  Cc1ccc(S(=O)(=O)N(C)C[C@@H]2OCCCC[C@@H](C)Oc3ccc(NC(=O)Nc4cccc5ccccc45)cc3C(=O)N([C@H](C)CO)C[C@@H]2C)cc1            NO
12  C[C@@H]1CN([C@H](C)CO)C(=O)Cc2cc(NC(=O)c3ccncc3)ccc2O[C@@H]1CN(C)Cc1ccc(C(=O)O)cc1            NO
13  C[C@@H]1CCCCO[C@H](CN(C)C(=O)CCC(F)(F)F)[C@H](C)CN([C@@H](C)CO)C(=O)c2cc(NS(=O)(=O)c3cccs3)ccc2O1            NO
14  COc1ccc(NC(=O)Nc2ccc3c(c2)C(=O)N([C@@H](C)CO)C[C@@H](C)[C@@H](CN(C)Cc2ccc(Cl)c(Cl)c2)OCCCC[C@H](C)O3)cc1            NO
15  [N-]=[N+]=NCCOCCNC(=O)CCCOc1ccc(CS(=O)c2nnc(-c3ccc(F)cc3)o2)nc1 (configuration not stated)           YES
16  COc1ccc(NC(=O)Nc2ccc3c(c2)C(=O)N([C@H](C)CO)C[C@H](C)[C@@H](CN(C)Cc2ccc(Cl)c(Cl)c2)OCCCC[C@H](C)O3)cc1            NO
17  COc1ccc(NC(=O)Nc2ccc3c(c2)C(=O)N([C@H](C)CO)C[C@@H](C)[C@H](CN(C)Cc2ccc(Cl)c(Cl)c2)OCCCC[C@H](C)O3)cc1           YES
18  C[C@@H]1CN([C@H](C)CO)C(=O)c2cc(NC(=O)Nc3ccc(C(F)(F)F)cc3)ccc2O[C@@H]1CN(C)Cc1ccc2c(c1)OCO2            NO
19  O=C(C[C@@H]1C[C@H]2c3cc(NC(=O)C4CCOCC4)ccc3O[C@H]2[C@H](CO)O1)NCc1ccc2c(c1)OCO2            NO
20                    NCc1ccc(S(N)(=O)=O)cc1            NO
21  COc1ccc(S(=O)(=O)N[C@@H]2C=C[C@H](CC(=O)N3CCC(Cc4ccccc4)CC3)O[C@@H]2CO)cc1            NO
22  COc1ccc(S(=O)(=O)N(C)C[C@H]2Oc3ccc(NC(=O)C4CC4)cc3CC(=O)N([C@H](C)CO)C[C@H]2C)cc1            NO
23  COc1ccc(NC(=O)Nc2ccc3c(c2)C(=O)N([C@@H](C)CO)C[C@H](C)[C@H](CN(C)Cc2ccc(Cl)c(Cl)c2)OCCCC[C@@H](C)O3)cc1            NO
24  C=C(CO)C(=O)O[C@H]1C[C@@]2(C)OC(=O)/C(=C/C)[C@]2(O)CC[C@@]2(C)CC(=O)[C@]1(C(=C)C(=O)OC)O2            NO
25  C[C@H](CO)N1C[C@H](C)[C@@H](CN(C)S(=O)(=O)c2ccc(F)cc2)OCCCC[C@H](C)Oc2ccc(NC(=O)c3ccccc3)cc2C1=O            NO
26  COc1ccc(NC(=O)Nc2ccc3c(c2)C(=O)N([C@@H](C)CO)C[C@@H](C)[C@H](CN(C)C(=O)Nc2c(C)noc2C)OCCCC[C@H](C)O3)cc1            NO
27  Cc1cc(OCc2nnc(SC3CCCC3)n2-c2cccnc2)ccc1-c1ccc(S(C)(=O)=O)cc1           YES
